Source of measurements: ChEMBL document CHEMBL1134972

- testedSystem: Prostaglandin G/H synthase 1 (Homo sapiens)
- Sequence (P23219 whole entry): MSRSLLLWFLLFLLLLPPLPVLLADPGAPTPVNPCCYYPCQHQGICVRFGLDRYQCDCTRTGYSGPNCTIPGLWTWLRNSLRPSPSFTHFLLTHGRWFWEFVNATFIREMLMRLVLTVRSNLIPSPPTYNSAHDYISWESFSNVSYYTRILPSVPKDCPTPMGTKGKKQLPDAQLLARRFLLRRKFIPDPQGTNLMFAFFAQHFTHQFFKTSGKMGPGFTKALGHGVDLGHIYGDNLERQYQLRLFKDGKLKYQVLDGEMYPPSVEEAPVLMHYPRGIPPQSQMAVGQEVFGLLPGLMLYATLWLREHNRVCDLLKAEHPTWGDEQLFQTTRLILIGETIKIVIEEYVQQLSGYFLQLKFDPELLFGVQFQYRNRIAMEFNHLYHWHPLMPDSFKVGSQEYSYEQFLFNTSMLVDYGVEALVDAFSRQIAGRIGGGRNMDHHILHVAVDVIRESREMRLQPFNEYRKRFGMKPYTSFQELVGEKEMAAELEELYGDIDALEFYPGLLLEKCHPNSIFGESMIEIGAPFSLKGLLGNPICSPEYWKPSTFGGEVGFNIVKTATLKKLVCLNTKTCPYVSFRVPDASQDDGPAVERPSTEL
- experimentalDetails: In vitro inhibitory potency against Prostaglandin G/H synthase 1 in human whole blood assay
- Type: tissue-based
- conditionSet: read-out: IC50
Entries annotated with measured IC50

The compound CC(C)OC1=C(c2ccc(S(C)(=O)=O)cc2)C(C)(C)OC1=O showed IC50 equal to > 100 µM

// IC50 lookup, compound = CC[C@]1(C)OC(=O)C(OC(C)C)=C1c1ccc(S(C)(=O)=O)cc1 , result: > 86 µM

The value of IC50 measured for the compound CC[C@@]1(C)OC(=O)C(OC(C)C)=C1c1ccc(S(C)(=O)=O)cc1 (single isomer, unassigned) turned out to be > 100 µM
